Measured Biodistribution: Fat of individual entries
# Tested on: NRG-mice bearing LNCaP tumors
# ASSAY DETAILS: Biodistribution (and PET/SPECT imaging) in NRG-mice bearing LNCaP tumors
# Format: in vivo
# RUN CONDITIONS: 3 h p.i., Avg
*1 amine or outer side, *2 acyl side, *3 side chain or, on linkers, in order; H or OH if unused. Where a SMILES comes first, the peptide text is derived from it. [ ]: non-standard residue; d: D form. The star is where a group is joined. ξ: configuration not given here. Butanoyl(4-(4-NO2Ph)) = O=C(CCCc1ccc([N+](=O)[O-])cc1)*; DOTA = O=C(O)CN1CCN(CC(=O)O)CCN(CC(=O)*)CCN(CC(=O)O)CC1; ξAla(9-anthryl) = NC(Cc1c2ccccc2cc2ccccc12)C(=O)O; X2 = O=C(NC(CCCCN*)C(=O)O)NC(CC(F)C(=O)O)C(=O)O; X1 = O=C(C1CCC(CN[*:1])CC1)[*:2]; ξK = NCCCCC(N)C(=O)O
PROPERTY LABEL: Biodistribution: Fat (% ID/g)

[[record]]
molecule = "O=C([O-])CN1CCN(CC(=O)[O-])CCN(CC(=O)NCCCCC(NC(=O)CNC(=O)CCCc2ccc([N+](=O)[O-])cc2)C(=O)NCC(=O)NCC2CCC(C(=O)NC(Cc3c4ccccc4cc4ccccc34)C(=O)NCCCCC(NC(=O)NC(CC(F)C(=O)O)C(=O)O)C(=O)O)CC2)CCN(CC(=O)[O-])CC1.[68Ga+3] (stereo not drawn) [^68Ga-CCZ02025] ({Butanoyl(4-(4-NO2Ph))}-G[ξK](DOTA)G[X1][ξAla(9-anthryl)]-X2)"
quantity_unit = "% ID/g"
readout_value = 1.79

[[record]]
molecule = "COc1ccc(CCCC(=O)NCC(=O)NC(CCCCNC(=O)CN2CCN(CC(=O)[O-])CCN(CC(=O)[O-])CCN(CC(=O)[O-])CC2)CC(=O)NCC2CCC(C(=O)NC(Cc3c4ccccc4cc4ccccc34)C(=O)NCCCCC(NC(=O)NC(CC(F)C(=O)O)C(=O)O)C(=O)O)CC2)cc1.[177Lu+3] (stereo not drawn) [^177Lu-CCZ02019]"
quantity_unit = "% ID/g"
readout_value = 1.91

[[record]]
molecule = "COc1ccc(CCCC(=O)NCC(=O)NC(CCCCNC(=O)CN2CCN(CC(=O)[O-])CCN(CC(=O)[O-])CCN(CC(=O)[O-])CC2)CC(=O)NCC2CCC(C(=O)NC(Cc3c4ccccc4cc4ccccc34)C(=O)NCCCCC(NC(=O)NC(CCCC(=O)O)C(=O)O)C(=O)O)CC2)cc1.[68Ga+3] (stereo not drawn) [^68Ga-CCZ02015]"
quantity_unit = "% ID/g"
readout_value = 1.04

